# Tested on: ncRNAs (SEQ ID NO 28-89)
# assay-name: ncRNA arrays of melanocytes, keratinocytes, normal skin, melanoma cell lines and patient samples
# Set-up: species or system human
# particulars: melanoma patient 23 sample compared to normal skin
endpoint: ncRNA array expression, patient 23
Field format: numeric only.

SEQ ID NO 57 (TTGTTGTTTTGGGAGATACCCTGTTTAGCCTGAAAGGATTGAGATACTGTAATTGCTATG; listed as DNA, chemistry not given here; listed as Homo sapiens); 1.122
SEQ ID NO 86 (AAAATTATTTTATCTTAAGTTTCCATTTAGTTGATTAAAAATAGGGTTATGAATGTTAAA; listed as DNA, chemistry not given here; listed as Homo sapiens); −0.00853
SEQ ID NO 72 (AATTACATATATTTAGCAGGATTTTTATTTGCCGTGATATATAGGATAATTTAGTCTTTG; listed as DNA, chemistry not given here; listed as Homo sapiens); 0.09129
SEQ ID NO 37 (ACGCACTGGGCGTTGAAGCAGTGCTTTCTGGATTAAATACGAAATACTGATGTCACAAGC; DNA, backbone and methylation of C not given here; listed as Homo sapiens); 1.771
SEQ ID NO 79 (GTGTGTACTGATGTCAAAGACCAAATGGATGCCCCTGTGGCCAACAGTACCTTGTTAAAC; listed as DNA, chemistry not given here; listed as Homo sapiens); 1.445

In the following, a different substance is considered.
[in] Answer with the recorded ncRNA array expression, patient 23 for the substance listed here: SEQ ID NO 58 (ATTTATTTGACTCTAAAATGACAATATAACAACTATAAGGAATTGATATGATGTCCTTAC; listed as DNA, chemistry not given here; listed as Homo sapiens)
[out] −1.756

----------
# Test system: ncRNAs (SEQ ID NO 28-89)
# assay-name: ncRNA arrays of melanocytes, keratinocytes, normal skin, melanoma cell lines and patient samples
# Parameters: species or system human
# particulars: melanoma patient 21 sample compared to normal skin
# Experimental: An ncRNA array platform that contains over 10,000 putative (>200 nt) ncRNAs including most of the known ncRNAs in mouse and human was conducted to evaluate ncRNAs within melanoma. Lack of coding potential was estimated by an algorithm that scores various characteristics of protein-coding genes, including open reading frame length, synonymous/non-synonymous base substitution rates and similarity to known proteins. […]
endpoint: ncRNA array expression, patient 21
Field format: numeric only.

Please review the entries below; each comes with its answer.
SEQ ID NO 38 (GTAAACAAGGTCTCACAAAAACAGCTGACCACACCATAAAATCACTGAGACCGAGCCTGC; listed as DNA, chemistry not given here; listed as Homo sapiens); −1.068
SEQ ID NO 34 (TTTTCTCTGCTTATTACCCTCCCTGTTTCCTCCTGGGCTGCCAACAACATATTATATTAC; listed as DNA, chemistry not given here; listed as Homo sapiens); 2.382
SEQ ID NO 33 (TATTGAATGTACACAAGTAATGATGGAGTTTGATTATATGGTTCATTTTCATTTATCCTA; DNA, backbone and methylation of C not given here; listed as Homo sapiens); 1.613

In the following, a different substance is considered.
[in] Answer with the recorded ncRNA array expression, patient 21 for the substance listed here: SEQ ID NO 56 (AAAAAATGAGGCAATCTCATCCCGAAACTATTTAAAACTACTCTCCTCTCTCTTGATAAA; listed as DNA, chemistry not given here; listed as Homo sapiens)
[out] −1.986

----------
# System: ncRNAs (SEQ ID NO 28-89)
# assay-name: ncRNA arrays of melanocytes, keratinocytes, normal skin, melanoma cell lines and patient samples
# Design: species or system human
# particulars: melanoma patient 8 sample compared to normal skin
Listed substances paired with reported ncRNA array expression, patient 8
Field format: numeric only.

Please review the entries below; each comes with its answer.
SEQ ID NO 83 (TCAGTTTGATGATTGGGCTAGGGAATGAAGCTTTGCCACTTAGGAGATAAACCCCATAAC; listed as DNA, chemistry not given here; listed as Homo sapiens); −0.9534
SEQ ID NO 35 (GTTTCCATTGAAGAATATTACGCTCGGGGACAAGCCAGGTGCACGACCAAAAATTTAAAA; DNA, backbone and methylation of C not given here; listed as Homo sapiens); 2.14
SEQ ID NO 48 (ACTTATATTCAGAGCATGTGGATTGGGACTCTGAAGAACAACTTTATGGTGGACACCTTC; listed as DNA, chemistry not given here; listed as Homo sapiens); 3.309

[in] Answer with the recorded ncRNA array expression, patient 8 for the substance listed here: SEQ ID NO 72 (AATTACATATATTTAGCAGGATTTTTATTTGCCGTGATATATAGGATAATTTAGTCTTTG; listed as DNA, chemistry not given here; listed as Homo sapiens)
[out] 3.323

[in] Answer with the recorded ncRNA array expression, patient 8 for the substance listed here: SEQ ID NO 58 (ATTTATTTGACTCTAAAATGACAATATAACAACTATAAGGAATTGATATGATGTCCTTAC; listed as DNA, chemistry not given here; listed as Homo sapiens)
[out] −1.825

----------
# Test system: ncRNAs (SEQ ID NO 28-89)
# assay-name: ncRNA arrays of melanocytes, keratinocytes, normal skin, melanoma cell lines and patient samples
# Set-up: species or system human
# particulars: melanoma patient 26 sample compared to normal skin
Decision: ncRNA array expression, patient 26 compared against -1; not below it gives criterion met, below it gives criterion not met.

[in] Hello, I need to know if SEQ ID NO 81 (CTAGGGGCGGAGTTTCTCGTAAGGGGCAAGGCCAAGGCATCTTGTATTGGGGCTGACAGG; listed as DNA, chemistry not given here; listed as Homo sapiens) has measured ncRNA array expression, patient 26 not below -1. Thanks!
[out] criterion not met

[in] Hello, I need to know if SEQ ID NO 39 (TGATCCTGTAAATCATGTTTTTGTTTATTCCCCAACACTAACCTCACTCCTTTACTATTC; listed as DNA, chemistry not given here; listed as Homo sapiens) has measured ncRNA array expression, patient 26 not below -1. Thanks!
[out] criterion not met

[in] Hello, I need to know if SEQ ID NO 42 (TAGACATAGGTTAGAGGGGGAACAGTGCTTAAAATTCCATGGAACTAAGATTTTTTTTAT; listed as DNA, chemistry not given here; listed as Homo sapiens) has measured ncRNA array expression, patient 26 not below -1. Thanks!
[out] criterion not met

[in] Hello, I need to know if SEQ ID NO 29 (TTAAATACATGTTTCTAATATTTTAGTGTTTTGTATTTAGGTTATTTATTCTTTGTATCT; DNA, backbone and methylation of C not given here; listed as Homo sapiens) has measured ncRNA array expression, patient 26 not below -1. Thanks!
[out] criterion met

[in] Hello, I need to know if SEQ ID NO 66 (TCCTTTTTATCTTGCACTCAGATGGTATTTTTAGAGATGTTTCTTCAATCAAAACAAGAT; listed as DNA, chemistry not given here; listed as Homo sapiens) has measured ncRNA array expression, patient 26 not below -1. Thanks!
[out] criterion met

----------
Listed substances paired with reported ncRNA array expression, patient 27
# System: ncRNAs (SEQ ID NO 28-89)
# assay-name: ncRNA arrays of melanocytes, keratinocytes, normal skin, melanoma cell lines and patient samples
# Design: species or system human
# particulars: melanoma patient 27 sample compared to normal skin
Field format: numeric only.

Please review the entries below; each comes with its answer.
SEQ ID NO 32 (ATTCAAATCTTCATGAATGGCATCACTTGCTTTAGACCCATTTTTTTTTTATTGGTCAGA; DNA, backbone and methylation of C not given here; listed as Homo sapiens); 3.501
SEQ ID NO 45 (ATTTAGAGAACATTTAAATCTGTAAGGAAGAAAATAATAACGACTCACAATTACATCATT; listed as DNA, chemistry not given here; listed as Homo sapiens); −1.86
SEQ ID NO 48 (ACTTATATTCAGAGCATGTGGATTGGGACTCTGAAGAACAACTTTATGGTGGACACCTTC; listed as DNA, chemistry not given here; listed as Homo sapiens); 4.712
SEQ ID NO 29 (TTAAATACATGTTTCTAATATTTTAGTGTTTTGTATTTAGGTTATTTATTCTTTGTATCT; DNA, backbone and methylation of C not given here; listed as Homo sapiens); 2.873

[in] Recall the reported ncRNA array expression, patient 27 of SEQ ID NO 40 (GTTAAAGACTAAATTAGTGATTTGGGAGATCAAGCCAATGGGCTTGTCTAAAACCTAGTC; listed as DNA, chemistry not given here; listed as Homo sapiens) on ncRNAs (SEQ ID NO 28-89) and write it down.
[out] 1.467

----------
# Test system: ncRNAs (SEQ ID NO 28-89)
# assay-name: ncRNA arrays of melanocytes, keratinocytes, normal skin, melanoma cell lines and patient samples
# Design: species or system human
# particulars: melanoma patient 9 sample compared to normal skin
Mark Criterion met only for ncRNA array expression, patient 9 values smaller than -2; exact matches and larger values are Criterion not met.

Worked set:
SEQ ID NO 64 (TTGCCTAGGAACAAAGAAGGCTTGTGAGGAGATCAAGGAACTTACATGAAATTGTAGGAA; listed as DNA, chemistry not given here; listed as Homo sapiens); Criterion not met
SEQ ID NO 82 (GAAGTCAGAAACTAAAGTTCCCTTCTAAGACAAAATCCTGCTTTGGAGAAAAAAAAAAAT; listed as DNA, chemistry not given here; listed as Homo sapiens); Criterion met
SEQ ID NO 47 (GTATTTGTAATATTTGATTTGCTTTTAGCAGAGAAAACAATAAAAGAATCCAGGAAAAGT; listed as DNA, chemistry not given here; listed as Homo sapiens); Criterion met

Okay, next one:
[in] Bench note: check whether SEQ ID NO 62 (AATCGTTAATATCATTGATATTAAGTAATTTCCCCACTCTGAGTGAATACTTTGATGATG; listed as DNA, chemistry not given here; listed as Homo sapiens) shows ncRNA array expression, patient 9 below -2
[out] Criterion not met
